# Tested on: involucrin (IVL)
# assay_procedure: 3D micro-epidermis model (EpiScreen): involucrin immunostaining
# Type: cell-based, human
# experimental_parameters: Table 1 summary
outcome_measure: IVL expression

- CS(=O)(=O)CCNCc1ccc(-c2ccc3ncnc(Nc4ccc(OCc5cccc(F)c5)c(Cl)c4)c3c2)o1: Increased
- COc1cc2ncnc(Nc3ccc(F)c(Cl)c3)c2cc1OCCCN1CCOCC1: Increased
- C=CC(=O)Nc1cc(Nc2nccc(-c3cn(C)c4ccccc34)n2)c(OC)cc1N(C)CCN(C)C: Unchanged
- COc1cc2ncnc(Nc3ccc(F)c(Cl)c3)c2cc1NC(=O)/C=C/CN1CCCCC1: Increased
- C#Cc1cccc(Nc2ncnc3cc(OCCOC)c(OCCOC)cc23)c1: Increased
- CN(C)C/C=C/C(=O)Nc1cc2c(Nc3ccc(F)c(Cl)c3)ncnc2cc1O[C@H]1CCOC1: Increased
- CNC(=O)c1cc(Oc2ccc(NC(=O)Nc3ccc(Cl)c(C(F)(F)F)c3)cc2)ccn1: Unchanged

###

# Tested on: Human epidermal keratinocytes cells (HPEKs), 3D micro-epidermis
# assay_procedure: 3D micro-epidermis model (EpiScreen): epidermis size, toxicity, dose response, classification
# Type: cell-based
# experimental_parameters: Table 3; variation of protein expression at 3, 10, 30 nM (EGFRi) or 3, 10, 30, 100 nM (VEGFRi); markers in brackets
outcome_measure: Dose in response

• COc1cc2ncnc(Nc3ccc(F)c(Cl)c3)c2cc1OCCCN1CCOCC1 = Yes
• CC(=O)Nc1ccc(O)cc1 = No
• CNC(=O)c1cc(Oc2ccc(NC(=O)Nc3ccc(Cl)c(C(F)(F)F)c3)cc2)ccn1 = No
• CS(=O)(=O)CCNCc1ccc(-c2ccc3ncnc(Nc4ccc(OCc5cccc(F)c5)c(Cl)c4)c3c2)o1 = Yes
• COc1cc2ncnc(Nc3ccc(F)c(Cl)c3)c2cc1NC(=O)/C=C/CN1CCCCC1 = Yes
• CN(C)C/C=C/C(=O)Nc1cc2c(Nc3ccc(F)c(Cl)c3)ncnc2cc1O[C@H]1CCOC1 = Yes
• C=CC(=O)Nc1cc(Nc2nccc(-c3cn(C)c4ccccc34)n2)c(OC)cc1N(C)CCN(C)C = No
• C#Cc1cccc(Nc2ncnc3cc(OCCOC)c(OCCOC)cc23)c1 = No

###

# System: involucrin (IVL)
# assay_procedure: 3D micro-epidermis model (EpiScreen): involucrin immunostaining
# Assay type: cell-based, human
# experimental_parameters: 3 nM; supplementary data
# IVL 3 nM >= 10% gives MET, anything below gives NOT MET

- COc1cc2ncnc(Nc3ccc(F)c(Cl)c3)c2cc1NC(=O)/C=C/CN1CCCCC1: MET
- C=CC(=O)Nc1cc(Nc2nccc(-c3cn(C)c4ccccc34)n2)c(OC)cc1N(C)CCN(C)C: NOT MET
- COc1cc2ncnc(Nc3ccc(F)c(Cl)c3)c2cc1OCCCN1CCOCC1: MET
- C#Cc1cccc(Nc2ncnc3cc(OCCOC)c(OCCOC)cc23)c1: MET
- CS(=O)(=O)CCNCc1ccc(-c2ccc3ncnc(Nc4ccc(OCc5cccc(F)c5)c(Cl)c4)c3c2)o1: MET

###

# Tested on: Human epidermal keratinocytes cells (HPEKs), 3D micro-epidermis
# assay_procedure: 3D micro-epidermis model (EpiScreen): epidermis size, toxicity, dose response, classification;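 also: keratinocytes on micropatterned discs in high-calcium medium, drug exposure for three days, then fixation and confocal high-content imaging of actin, nuclei and a marker, vehicle DMSO-matched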
# Type: cell-based
# experimental_parameters: supplementary table; per run (1st or 2nd Run); markers in brackets
outcome_measure: Dose/response

• C=CC(=O)Nc1cc(Nc2nccc(-c3cn(C)c4ccccc34)n2)c(OC)cc1N(C)CCN(C)C = No
• CC(=O)Nc1ccc(O)cc1 = No
• CNC(=O)c1ccc(N2C(=S)N(c3ccc(C#N)c(C(F)(F)F)c3)C(=O)C2(C)C)cc1F [Enzalutamide] = No
